These entries and their values trace back to patent US8710038B2.

target: UniProt:P10721; test: c-Kit biochemical assay (AlphaScreen)
pIC50: −log10 of the molar value.
assay metric: pIC50

Solved cases (5 shown):
>  <mol>
O=C(Nc1ccc(-c2cc(-c3nc4ccccc4[nH]3)n[nH]2)cc1)Nc1cc(C(F)(F)F)ccc1F

>  <data value>
> 7.30

$$$$
>  <mol>
Oc1ccc(/C=C/c2cc(-c3ccccc3F)[nH]n2)cc1

>  <data value>
6.30 to 7.30

$$$$
>  <mol>
Oc1ccc(/C=C/c2cc(-c3ccccc3Cl)n[nH]2)cc1

>  <data value>
5.30 to 6.30

$$$$
>  <mol>
Oc1ccc(/C=C/c2cc(-c3ccccn3)[nH]n2)cc1

>  <data value>
5.30 to 6.30

$$$$
>  <mol>
CCN1CCN(c2ccc(-c3cc(-c4ccc(NC(=O)Nc5ccc(Cl)c(C(F)(F)F)c5)cc4)[nH]n3)cc2)CC1

>  <data value>
> 7.30

$$$$

Kindly consider the entry below.
Request the reported pIC50 associated with CN1CCN(c2ccc3[nH]c(-c4cc(-c5ccc(NC(=O)Nc6ccc(Cl)cc6)cc5)[nH]n4)nc3c2)CC1
> 7.30

---

Target: EphB4 (Homo sapiens)
Sequence (P54760 16-987): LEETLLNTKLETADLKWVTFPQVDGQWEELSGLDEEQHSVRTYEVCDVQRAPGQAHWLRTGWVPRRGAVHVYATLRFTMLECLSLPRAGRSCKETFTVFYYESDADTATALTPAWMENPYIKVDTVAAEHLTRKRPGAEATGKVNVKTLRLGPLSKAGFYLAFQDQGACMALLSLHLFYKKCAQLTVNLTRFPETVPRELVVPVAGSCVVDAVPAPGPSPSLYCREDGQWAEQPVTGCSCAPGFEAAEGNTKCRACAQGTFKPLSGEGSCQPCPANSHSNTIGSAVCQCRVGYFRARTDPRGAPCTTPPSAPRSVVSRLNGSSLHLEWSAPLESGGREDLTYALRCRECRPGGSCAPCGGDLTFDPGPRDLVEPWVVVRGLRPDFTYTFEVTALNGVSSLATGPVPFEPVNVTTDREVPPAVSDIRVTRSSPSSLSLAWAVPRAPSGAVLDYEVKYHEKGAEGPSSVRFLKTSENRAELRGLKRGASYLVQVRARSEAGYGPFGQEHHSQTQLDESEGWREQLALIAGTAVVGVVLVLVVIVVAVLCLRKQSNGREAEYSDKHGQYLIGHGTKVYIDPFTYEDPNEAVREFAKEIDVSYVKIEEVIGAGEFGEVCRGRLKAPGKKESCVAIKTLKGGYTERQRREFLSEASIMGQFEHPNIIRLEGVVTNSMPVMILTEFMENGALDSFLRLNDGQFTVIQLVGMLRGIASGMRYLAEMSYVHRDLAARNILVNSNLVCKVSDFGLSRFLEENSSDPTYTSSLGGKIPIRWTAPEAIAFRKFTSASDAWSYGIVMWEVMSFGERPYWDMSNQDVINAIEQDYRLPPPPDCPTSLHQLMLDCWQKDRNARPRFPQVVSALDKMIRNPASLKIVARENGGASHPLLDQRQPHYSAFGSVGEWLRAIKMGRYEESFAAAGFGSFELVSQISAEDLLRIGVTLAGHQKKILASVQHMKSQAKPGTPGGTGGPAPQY
pIC50: −log10 of the molar value.
Below: a set of entries, each annotated with reported pIC50.

Solved cases (10 shown):
>  <mol>
O=C(Nc1ccc(-c2cc(-c3nc4ccccc4[nH]3)n[nH]2)cc1)Nc1ccc(Cl)c(C(F)(F)F)c1

>  <assay metric>
pIC50

>  <data value>
< 5.30

$$$$
>  <mol>
CN1CCN(c2ccc3[nH]c(-c4cc(-c5ccc(NC(=O)Nc6ccc(F)c(C(F)(F)F)c6)cc5)[nH]n4)nc3c2)CC1

>  <assay metric>
pIC50

>  <data value>
< 5.30

$$$$
>  <mol>
Oc1ccc(/C=C/c2cc(-c3cc4ccccc4s3)n[nH]2)cc1

>  <assay metric>
pIC50

>  <data value>
< 5.30

$$$$
>  <mol>
CCc1cccc(NC(=O)Nc2ccc(-c3cc(-c4nc5cc(N6CCN(CC)CC6)ccc5[nH]4)n[nH]3)cc2)c1

>  <assay metric>
pIC50

>  <data value>
5.30 to 6.30

$$$$
>  <mol>
CN1CCN(c2ccc3[nH]c(-c4cc(-c5ccc(NC(=O)Nc6ccc(Cl)cc6)cc5)[nH]n4)nc3c2)CC1

>  <assay metric>
pIC50

>  <data value>
< 5.30

$$$$
>  <mol>
CN1CCN(c2cccc(-c3cc(/C=C/c4ccc(O)cc4)[nH]n3)c2)CC1

>  <assay metric>
pIC50

>  <data value>
< 5.30

$$$$
>  <mol>
CCN1CCN(c2ccc3[nH]c(-c4cc(-c5ccc(NC(=O)Nc6ccc(Cl)c(C(F)(F)F)c6)cc5)[nH]n4)nc3c2)CC1

>  <assay metric>
pIC50

>  <data value>
< 5.30

$$$$
>  <mol>
COc1cc(/C=C/c2cc(/C=C/c3ccc(F)cc3F)n[nH]2)ccc1O

>  <assay metric>
pIC50

>  <data value>
< 5.30

$$$$
>  <mol>
CN1CCN(c2ccc3[nH]c(-c4cc(-c5ccc(NC(=O)Nc6cccc(F)c6)cc5)[nH]n4)nc3c2)CC1

>  <assay metric>
pIC50

>  <data value>
< 5.30

$$$$
>  <mol>
CN1CCN(c2ccc3nc(-c4cc(-c5ccc(NC(=O)Nc6cccc(Br)c6)cc5)[nH]n4)[nH]c3c2)CC1

>  <assay metric>
pIC50

>  <data value>
< 5.30

$$$$

Kindly consider the entry below.
Request the reported pIC50 associated with O=C(Nc1ccccc1)Nc1ccc(-c2cc(-c3nc4ccccc4[nH]3)n[nH]2)cc1
< 5.30

---

target: c-Kit (Homo sapiens, UniProt P10721); test: c-Kit biochemical assay (AlphaScreen)
Sequence (P10721 26-976): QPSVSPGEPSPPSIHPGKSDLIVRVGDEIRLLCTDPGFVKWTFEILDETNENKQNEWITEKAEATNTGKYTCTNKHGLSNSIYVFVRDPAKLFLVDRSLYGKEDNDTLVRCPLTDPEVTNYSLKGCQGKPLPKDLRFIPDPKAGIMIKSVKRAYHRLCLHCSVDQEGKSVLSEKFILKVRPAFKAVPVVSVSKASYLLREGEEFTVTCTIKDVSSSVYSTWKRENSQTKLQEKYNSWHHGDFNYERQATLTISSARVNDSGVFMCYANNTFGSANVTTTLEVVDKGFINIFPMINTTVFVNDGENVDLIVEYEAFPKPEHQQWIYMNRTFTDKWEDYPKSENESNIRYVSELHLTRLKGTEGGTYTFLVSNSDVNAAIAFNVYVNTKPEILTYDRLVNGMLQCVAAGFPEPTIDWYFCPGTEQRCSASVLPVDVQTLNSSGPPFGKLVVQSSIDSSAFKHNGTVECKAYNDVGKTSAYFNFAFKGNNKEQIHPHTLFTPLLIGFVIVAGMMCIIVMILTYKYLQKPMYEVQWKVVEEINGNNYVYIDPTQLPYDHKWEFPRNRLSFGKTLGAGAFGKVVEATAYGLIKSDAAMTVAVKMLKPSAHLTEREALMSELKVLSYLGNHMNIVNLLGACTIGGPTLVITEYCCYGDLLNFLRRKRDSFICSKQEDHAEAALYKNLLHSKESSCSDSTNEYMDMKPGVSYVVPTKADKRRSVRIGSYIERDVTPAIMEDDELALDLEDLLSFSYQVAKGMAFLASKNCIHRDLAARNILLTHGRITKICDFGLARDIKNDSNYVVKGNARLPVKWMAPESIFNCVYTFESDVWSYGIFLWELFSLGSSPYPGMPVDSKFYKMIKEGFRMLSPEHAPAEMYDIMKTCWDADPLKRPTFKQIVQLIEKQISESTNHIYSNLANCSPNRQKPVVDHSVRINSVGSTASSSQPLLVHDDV
assay metric: IC50

Solved cases (5 shown):
>  <mol>
CN1CCN(c2ccc(-c3cc(-c4ccc(NC(=O)Nc5ccc(F)cc5F)cc4)[nH]n3)cc2)CC1

>  <data value>
0.05 to 0.5 µM

$$$$
>  <mol>
O=C(Nc1ccc(-c2cc(-c3ccccc3)n[nH]2)cc1)Nc1ccc(Cl)c(C(F)(F)F)c1

>  <data value>
0.05 to 0.5 µM

$$$$
>  <mol>
CN1CCN(c2ccc3[nH]c(-c4cc(-c5ccc(NC(=O)Nc6ccc(F)c(F)c6)cc5)[nH]n4)nc3c2)CC1

>  <data value>
< 0.05 µM

$$$$
>  <mol>
O=C(Nc1ccc(-c2cc(-c3nc4ccccc4[nH]3)n[nH]2)cc1)Nc1ccc(Cl)c(C(F)(F)F)c1

>  <data value>
< 0.05 µM

$$$$
>  <mol>
COc1cc(/C=C/c2cc(-c3ccccc3)[nH]n2)ccc1O

>  <data value>
0.05 to 0.5 µM

$$$$

For the record Oc1ccc(/C=C/c2cc(/C=C/c3ccccc3)[nH]n2)cc1 , what value of IC50 is listed for c-Kit (Homo sapiens, UniProt P10721)?
< 0.05 µM

And what about the compound CN1CCN(c2ccc3[nH]c(-c4cc(-c5ccc(NC(=O)Nc6ccc(Cl)c(C(F)(F)F)c6)cc5)[nH]n4)nc3c2)CC1 ?
< 0.05 µM

And what about the compound COc1ccc(NC(=O)Nc2ccc(-c3cc(-c4nc5cc(N6CCN(C)CC6)ccc5[nH]4)n[nH]3)cc2)cc1OC ?
< 0.05 µM

And what about the compound CC(C)(C)OC(=O)Nc1ccc(-c2cc(/C=C/c3ccccc3)n[nH]2)cc1 ?
0.5 to 5 µM

And what about the compound CN1CCN(c2ccc3[nH]c(-c4cc(-c5ccc(NC(=O)Nc6ccc(Cl)c(Cl)c6)cc5)[nH]n4)nc3c2)CC1 ?
< 0.05 µM

And what about the compound COc1cccc(NC(=O)Nc2ccc(-c3cc(-c4nc5cc(N6CCN(C)CC6)ccc5[nH]4)n[nH]3)cc2)c1 ?
< 0.05 µM

And what about the compound Oc1ccc(/C=C/c2cc(-c3cccc(Cl)c3)n[nH]2)cc1 ?
0.5 to 5 µM

And what about the compound Oc1ccc(/C=C/c2cc(-c3ccc(Cl)c(Cl)c3)n[nH]2)cc1 ?
0.5 to 5 µM

---

Below: a set of entries, each annotated with reported IC50.
Biological target: UniProtKB P36888
Sequence (P36888 571-993): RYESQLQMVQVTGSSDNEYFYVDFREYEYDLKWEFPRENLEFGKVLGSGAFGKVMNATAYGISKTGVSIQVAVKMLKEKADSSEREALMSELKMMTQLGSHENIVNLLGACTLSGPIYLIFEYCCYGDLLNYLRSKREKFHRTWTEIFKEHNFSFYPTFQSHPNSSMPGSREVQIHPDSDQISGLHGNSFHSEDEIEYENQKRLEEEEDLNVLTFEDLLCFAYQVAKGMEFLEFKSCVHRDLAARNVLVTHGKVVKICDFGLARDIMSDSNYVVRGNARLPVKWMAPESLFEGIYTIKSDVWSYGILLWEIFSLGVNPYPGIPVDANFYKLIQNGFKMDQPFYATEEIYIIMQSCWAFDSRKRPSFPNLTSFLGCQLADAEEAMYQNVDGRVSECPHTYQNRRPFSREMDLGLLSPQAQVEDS

>  <compound>
CN1CCN(c2ccc3nc(-c4cc(-c5ccc(NC(=O)Nc6cccc(Br)c6)cc5)[nH]n4)[nH]c3c2)CC1 [Entry 7]

>  <data value>
< 50 nM

$$$$
>  <compound>
CN1CCN(c2cccc(-c3cc(-c4ccc(NC(=O)Nc5ccc(Cl)c(C(F)(F)F)c5)cc4)[nH]n3)c2)CC1 [Entry 40]

>  <data value>
< 50 nM

$$$$
>  <compound>
COc1cc(/C=C/c2cc(/C=C/c3ccc(F)cc3)n[nH]2)ccc1O [Entry 44]

>  <data value>
< 50 nM

$$$$
>  <compound>
Oc1ccc(/C=C/c2cc(-c3ccccc3F)[nH]n2)cc1 [Entry 57]

>  <data value>
50 to 500 nM

$$$$
>  <compound>
COc1cc(NC(=O)Nc2ccc(-c3cc(-c4nc5ccc(N6CCN(C)CC6)cc5[nH]4)n[nH]3)cc2)cc(OC)c1 [Entry 11]

>  <data value>
< 50 nM

$$$$

Request the reported IC50 associated with CN1CCN(c2cccc(-c3cc(/C=C/c4ccc(O)cc4)[nH]n3)c2)CC1 [Entry 58]
50 to 500 nM

And what about the compound CN1CCN(c2ccc3[nH]c(-c4cc(-c5ccc(NC(=O)Nc6ccc(Cl)c(Cl)c6)cc5)[nH]n4)nc3c2)CC1 [Entry 6] ?
< 50 nM
